The measurements presented in this section are drawn from PubChem BioAssay (NCI).

test system: NCI-H460 lung; test: NCI tumour cell line growth inhibition, 48 h
MEASUREMENT KIND: TGI

Worked cases, TGI given:
• CC(=O)OCCn1c(Cc2ccc(C)cc2)nn(C(C)=O)c1=O = > 100 µM
• COC(=O)[C@]1(c2cc3ccccc3[nH]2)CC2CN(C(=O)OCc3ccccc3)C1C=C2OC (stereo partly drawn) = > 100 µM

Then there is this compound:
[ask] API: value(readout=TGI, system=NCI-H460 lung) for record COc1ccc(C2=C(c3cn(C)c4ccccc34)C(=O)OC2)cc1OC
[reply] > 100 µM

----------
tested on: NCI/ADR-RES ovarian; assay: NCI tumour cell line growth inhibition, 48 h; in the data active = GI50 below about 0.43 µM; inactive = the rest
Pick from active, inactive when you respond.

Known results for compounds:
- NCCNC1=CC(=O)c2nc3ccccc3c3ccnc1c23: inactive
- COc1cc2c(cc1O)CC[C@@H]1[C@@H]2CC[C@]2(C)[C@@H](OCCCN(C)C)CC[C@@H]12: active

Pending compound:
[ask] Answer briefly: the call reported for Cc1ccc(-c2nc3nc(-c4ccc(Br)cc4)nc(N4CCCNCC4)c3o2)cc1 in this assay.
[reply] inactive
